Ref: patent US20200002436A1

Biological target: T1, human recombinant NKG2D-Fc (human, UniProt P26718 73-216)
T1 construct: extracellular domain; also called recombinant human NKG2D-Fc; NKG2D-Fc fusion protein; not shown: human IgG1 Fc domain
T1 sequence (looked up): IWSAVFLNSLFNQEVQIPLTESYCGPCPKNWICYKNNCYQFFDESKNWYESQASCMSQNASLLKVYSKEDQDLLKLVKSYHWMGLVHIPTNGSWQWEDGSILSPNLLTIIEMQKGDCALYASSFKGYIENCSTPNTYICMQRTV
Experiment: ELISA on coated NKG2D-Fc;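 note: titrated NKG2D binders added to plates coated with human, mouse or cynomolgus NKG2D ectodomain–human IgG1 Fc fusions, detected by HRP anti-human kappa antibody with TMB, absorbance at 450 nm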
metric: binding result

>  <binder>
ADI-27741 (antibody, V domains shown) VH: QVQLQQWGAGLLKPSETLSLTCAVYGGSFSGYYWSWIRQPPGKGLEWIGEIDHSGSTNYNPSLKSRVTISVDTSKNQFSLKLSSVTAADTAVYYCARARGPWSFDPWGQGTLVTVSS VL: DIQMTQSPSTLSASVGDRVTITCRASQSIGSWLAWYQQKPGKAPKLLIYKASSLESGVPSRFSGSGSGTEFTLTISSLQPDDFATYYCQQSNSYYTFGGGTKVEIK

>  <test_result>
binds

$$$$
>  <binder>
ADI-29404 (antibody, V domains shown, also called F04) VH: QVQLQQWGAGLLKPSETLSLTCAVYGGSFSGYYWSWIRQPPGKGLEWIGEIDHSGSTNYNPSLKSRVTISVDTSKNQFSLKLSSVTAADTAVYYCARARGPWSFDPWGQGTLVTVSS VL: DIQMTQSPSTLSASVGDRVTITCRASQSISSWLAWYQQKPGKAPKLLIYKASSLESGVPSRFSGSGSGTEFTLTISSLQPDDFATYYCEQYDSYPTFGGGTKVEIK

>  <test_result>
binds

$$$$
